Target: 5-HT2A (Homo sapiens)
Assay: Phosphoinositide hydrolysis functional assay
Details: activation of phosphoinositide hydrolysis, stably expressed receptor
measured.metric: EC50 (nM)
The answer is to be given in nM; state only the numeric part.

Exercise: State its EC50 for this molecule: "CN(C)CCc1cn(CCF)c2c(F)ccc(O)c12"
Key: 614

* * *

Molecular target: 5-HT2A (Homo sapiens, UniProt P28223)
Sequence (P28223 whole entry): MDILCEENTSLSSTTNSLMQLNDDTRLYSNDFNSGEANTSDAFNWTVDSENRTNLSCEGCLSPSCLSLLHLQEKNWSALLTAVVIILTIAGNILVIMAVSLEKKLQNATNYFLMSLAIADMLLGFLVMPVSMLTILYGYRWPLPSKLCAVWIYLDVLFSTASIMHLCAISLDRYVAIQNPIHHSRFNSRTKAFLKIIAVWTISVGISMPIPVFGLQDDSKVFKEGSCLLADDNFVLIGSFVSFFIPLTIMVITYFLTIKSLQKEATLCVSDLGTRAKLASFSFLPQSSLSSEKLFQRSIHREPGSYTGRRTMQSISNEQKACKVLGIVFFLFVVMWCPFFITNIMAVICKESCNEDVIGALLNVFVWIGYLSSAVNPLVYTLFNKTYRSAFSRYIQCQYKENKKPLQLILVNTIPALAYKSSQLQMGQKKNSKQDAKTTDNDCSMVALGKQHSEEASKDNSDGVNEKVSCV
Test: Phosphoinositide hydrolysis functional assay
Conditions: activation of phosphoinositide hydrolysis, stably expressed receptor
Description: Phosphoinositide hydrolysis assays were performed with stably (5-HT2A, 5-HT2C) or transiently (5-HT2B) expressed receptors plated in 24-well culture plates. Transfected cells were loaded with […] overnight in inositol-free DMEM without serum. The next day, phosphate accumulation assays were performed in a modified Krebs-bicarbonate buffer. […]
The reader will find reported pEC50 values listed item by item below.
The scale used: pEC50 is minus the common logarithm of the concentration in molar units.

Reference set (3 entries):
CN(C)CCc1cn(CC2CC2)c2cc(F)cc(O)c12 [Compound O-4287]    5.43
CN(C)CCc1cn(C)c2cc(F)cc(O)c12 [Compound O-4244]    9.26
CCCn1cc(CCN(C)C)c2c(O)cc(F)cc21 [Compound O-4285]    6.78

Exercise: Given CC(C)n1cc(CCN(C)C)c2c(O)cc(F)cc21 [Compound O-4310] , report its pEC50 on 5-HT2A (Homo sapiens, UniProt P28223).
Key: 8.30

Exercise: Given CCn1cc(CCN(C)C)c2c(O)cc(F)cc21 [Compound O-4284] , report its pEC50 on 5-HT2A (Homo sapiens, UniProt P28223).
Key: 8.54
